Experiment: BET inhibitor-based combinations targeting novel dependencies in MECOM-rearranged (r) AML: UCSD-AML1 cell line (AID 2202235); also: nearly all actives have a fitted effect of over 40% in size
Conditions: UCSD-AML1 AML cells viability, CellTiter-Glo, 48 h; series mostly up to 46 µM
Records with an inconclusive call do not appear. The source made the active and inactive calls. Calls follow the shape of the dose curve; as a rule, active = well fitted inhibition curve with a large enough effect; inconclusive = small, poorly fitted or top-dose-only effect; inactive = no such curve, though single readings can be large or run the other way.
Return exactly one item of active, inactive

Before answering, review these 5 worked examples.
Q: Assay outcome for `CC#C[C@@H](CC(=O)O)c1ccc(OCc2cccc(-c3ccc(C(F)(F)F)cc3)c2)cc1` : what was it?
Result: inactive

Q: Assay outcome for `CC#CC(=O)N1CCC[C@H]1c1nc(-c2ccc(C(=O)Nc3ccccn3)cc2)c2c(N)nccn12` : what was it?
Result: inactive

Q: Assay outcome for `CC(=O)Oc1ccccc1C(=O)O` : what was it?
Result: inactive

Q: Assay outcome for `O=[N+]([O-])c1cn2c(n1)OC[C@@H](OCc1ccc(OC(F)(F)F)cc1)C2` : what was it?
Result: inactive

Q: Assay outcome for `Cc1cc(Nc2cc(NC(=O)c3c(Cl)cccc3Cl)ccn2)nc(N)n1` : what was it?
Result: active

More entries:
Q: Assay outcome for `Cc1cc(O)c2c(c1)C(=O)c1cccc(O)c1C2=O` : what was it?
Result: inactive

Q: Assay outcome for `Nc1ncnc2c1ncn2[C@@H]1O[C@H](CO)[C@@H](O)[C@H]1O` : what was it?
Result: inactive

Q: Assay outcome for `Nc1ccc(/C=C/C(=O)NCc2cc3cc(-c4ccc(C(=O)N5CCC(F)(F)CC5)cc4)cc(-c4ccc(F)cc4)c3o2)cn1` : what was it?
Result: active

Q: Assay outcome for `C[C@H]1COc2c(N3CCN(C)CC3)c(F)cc3c(=O)c(C(=O)O)cn1c23` : what was it?
Result: inactive

Q: Assay outcome for `Cc1c(NC(=O)c2cc(C(N)=O)nc3cc(F)ccc23)c(C(F)(F)F)nn1Cc1ccc(C#N)cc1` : what was it?
Result: inactive

====

Test: BET inhibitor-based combinations targeting novel dependencies in MECOM-rearranged (r) AML: AML-191 cell line (AID 2202236; also: nearly all actives have a fitted effect of over 35% in size)
Settings: AML-191 viability, CellTiter-Glo luminescence, 48 h; series mostly up to 46 µM
Inconclusive results are not listed. Active and inactive are the calls of the source. Calls come from the whole dose curve; as a rule, active = well fitted inhibition curve with a large enough effect; inconclusive = small, poorly fitted or top-dose-only effect; inactive = flat fitted curve, though single readings scatter.
Return exactly one item of TRUE for active, FALSE for inactive

Q: Assay outcome for `COc1nc(C)nc(Cl)c1NC1=NCCN1` : what was it?
Result: FALSE

Q: Assay outcome for `COc1cc2c(NC3CCN(CC4CCCCC4)CC3)nc(N3CCCN(C(C)C)CC3)nc2cc1OCCCN1CCCCC1` : what was it?
Result: TRUE

Q: Assay outcome for `COc1cc(N2CCC(N(C)C)CC2)ccc1Nc1ncc(Cl)c(Nc2ccccc2P(C)(C)=O)n1` : what was it?
Result: TRUE

Q: Assay outcome for `NC(=O)c1cnc(N[C@@H]2CCCC[C@@H]2N)nc1Nc1cccc(-n2nccn2)c1` : what was it?
Result: TRUE

Q: Assay outcome for `N#Cc1c(NC(=O)c2cccc3ccccc23)sc2c1CCCC2` : what was it?
Result: TRUE

More entries:
Q: Assay outcome for `CCCCN(CCCC)C(=O)CN1C[C@H](c2ccc3c(c2)OCO3)[C@@H](C(=O)O)[C@@H]1c1ccc(OC)cc1` : what was it?
Result: FALSE

Q: Assay outcome for `CC(C)c1nn(-c2c(Cl)cccc2Cl)c2nc(Cc3ccc(OCCO)cc3)[nH]c(=O)c12` : what was it?
Result: TRUE

Q: Assay outcome for `Cc1nnc(NS(=O)(=O)c2ccc(N)cc2)s1` : what was it?
Result: FALSE

Q: Assay outcome for CCCCN(CCCC)CC(O)c1cc(Cl)cc2c1-c1ccc(Cl)cc1/C2=C/c1ccc(Cl)cc1 (centres undefined) : what was it?
Result: FALSE

Q: Assay outcome for `OC[C@H]1O[C@@H](O[C@@H]2[C@@H](CO)O[C@](O)(CO)[C@H]2O)[C@H](O)[C@@H](O)[C@H]1O` : what was it?
Result: FALSE

Q: Assay outcome for `Cc1c(CCOc2ccc(C(=O)O)cc2)c2cc(Cl)ccc2n1C(c1ccccc1)c1ccccc1` : what was it?
Result: FALSE

====

Target: Aldehyde dehydrogenase, mitochondrial (Homo sapiens) (UniProt P05091)
Assay: qHTS for Inhibitors of the Aldehyde Dehydrogenase Family (ALDH2) Primary screen (AID 2061308); also: potency is read from the fitted curve at half-maximal effect; nearly all actives have a fitted effect of over 55% in size
Settings: ALDH2 enzyme inhibition qHTS, 1536-well; series mostly up to 56 µM
Records with an inconclusive call do not appear. Calls of active or inactive are those of the source. Calls follow the shape of the dose curve; as a rule, active = well fitted inhibition curve with a large enough effect; inconclusive = small, poorly fitted or top-dose-only effect; inactive = flat fitted curve, though single readings scatter.
Listed here: items and their measured Potency.

Q: Requested field: Potency. Item: `CC(C)(C)OC(=O)N1CCN(c2ccc(NCc3cnc(-c4ccc(C#N)cc4)o3)cc2)CC1`
Result: 0.316 µM (active)

====

Target: Cellular tumor antigen p53 (Homo sapiens) (UniProt P04637)
Sequence (P04637 whole entry, looked up): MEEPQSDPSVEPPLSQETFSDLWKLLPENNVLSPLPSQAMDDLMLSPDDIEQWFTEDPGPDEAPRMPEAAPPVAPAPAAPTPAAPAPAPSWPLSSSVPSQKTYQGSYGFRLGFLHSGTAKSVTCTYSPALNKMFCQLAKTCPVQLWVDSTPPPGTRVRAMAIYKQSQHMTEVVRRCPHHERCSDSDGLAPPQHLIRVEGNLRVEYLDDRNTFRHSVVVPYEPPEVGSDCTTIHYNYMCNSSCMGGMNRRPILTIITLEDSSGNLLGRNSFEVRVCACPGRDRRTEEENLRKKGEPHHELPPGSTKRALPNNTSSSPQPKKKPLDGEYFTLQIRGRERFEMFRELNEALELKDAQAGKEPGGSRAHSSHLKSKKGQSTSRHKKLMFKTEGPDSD
Assay: Primary qHTS for small molecule compounds that upregulate eGFP-tagged delta133p53alpha (in N-terminal) cells. (AID 2060322);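 also: cells pre-induced with doxycycline then dosed without doxycycline; 0% = DMSO vehicle and 100% = reference activator; nearly all actives have a fitted effect of over 75% in size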
Conditions: NCI-H358 eGFP-delta133p53alpha fluorescence, 24 h; active compounds read high
Inconclusive results are not listed.
Listed here: items and their measured activation.
Your answer should be a plain number; it is taken to be in %.

Q: Cellular tumor antigen p53 (Homo sapiens) (UniProt P04637) / activation / `[N-]=[N+]=Nc1ccc(C(=O)CSC[C@H](NC(=O)CC[C@H](N)C(=O)O)C(=O)NCC(=O)O)cc1` : value?
Result: -38.2

Q: Cellular tumor antigen p53 (Homo sapiens) (UniProt P04637) / activation / `CCCC(CCC)C(=O)Nc1ccn([C@@H]2O[C@H](CO)[C@@H](O)C2(F)F)c(=O)n1` : value?
Result: -16.2

Q: Cellular tumor antigen p53 (Homo sapiens) (UniProt P04637) / activation / `COC(=O)[C@H](c1ccccc1Cl)N1CCc2sccc2C1` : value?
Result: 12.2

Q: Cellular tumor antigen p53 (Homo sapiens) (UniProt P04637) / activation / CCC(C)C(=O)O[C@H]1[C@H](O)[C@@]2(COC(C)=O)C(CC1(C)C)C1=CCC3[C@@]4(C)CC[C@H](O[C@@H]5O[C@H](C(=O)O)[C@@H](O)[C@H](O)[C@H]5O)[C@@](C)(CO)C4CC[C@@]3(C)[C@]1(C)C[C@@H]2O (some centres undefined) : value?
Result: -0.893

Q: Cellular tumor antigen p53 (Homo sapiens) (UniProt P04637) / activation / CC1CC(=O)[C@]2(O)C(C(=O)OCCc3ccc(O)c(O)c3)=CO[C@@H](O[C@@H]3O[C@H](CO)[C@@H](O)[C@H](O)[C@H]3O)[C@H]12 (some centres undefined) : value?
Result: 6.87

More entries:
Q: Cellular tumor antigen p53 (Homo sapiens) (UniProt P04637) / activation / CC(=O)NC(Cc1c[nH]c2ccccc(=O)c12)C(=O)O (centres undefined) : value?
Result: -2.29

Q: Cellular tumor antigen p53 (Homo sapiens) (UniProt P04637) / activation / `CC(=O)SCC(=O)c1ccc(NS(=O)(=O)c2ccc(OCCCN(C)C)cc2)nc1` : value?
Result: 10

Q: Cellular tumor antigen p53 (Homo sapiens) (UniProt P04637) / activation / `CCN(CC)CCOCCOC(=O)C(CC)(CC)c1ccccc1` : value?
Result: -4.3

Q: Cellular tumor antigen p53 (Homo sapiens) (UniProt P04637) / activation / `CN(C)N(C)C(=O)[C@@]1(Cc2ccccc2)CCCN(C(=O)[C@@H](Cc2c[nH]c3ccccc23)NC(=O)C(C)(C)N)C1` : value?
Result: -17.2

====

Molecular target: Aldehyde dehydrogenase 1A1 (Homo sapiens) (UniProt P00352)
Assay: qHTS for Inhibitors of the Aldehyde Dehydrogenase Family (ALDH1A1) Confirmatory screens (AID 2061316); also: nearly all actives have a fitted effect of over 65% in size
Settings: ALDH inhibition qHTS; series mostly up to 47.3 µM
Records with an inconclusive call do not appear. Active and inactive are the calls of the source. Calls come from the whole dose curve; as a rule, active = well fitted inhibition curve with a large enough effect; inconclusive = small, poorly fitted or top-dose-only effect; inactive = no such curve, though single readings can be large or run the other way.
Return exactly one item of active, inactive

Before answering, review these 5 worked examples.
Q: Assay outcome for `CN[C@@H]1[C@H](O[C@H]2[C@H](O[C@@H]3[C@@H](O)[C@H](O)[C@@H](N=C(N)N)[C@H](O)[C@H]3N=C(N)N)O[C@@H](C)[C@]2(O)C=O)O[C@@H](CO)[C@H](O)[C@H]1O` : what was it?
Result: inactive

Q: Assay outcome for `CCc1ccc(-n2c(SCc3cccc(F)c3)nc3[nH]ncc3c2=O)cc1` : what was it?
Result: active

Q: Assay outcome for `c1cn2cc(-c3ccc4cn[nH]c4c3)nc(Nc3ccc(N4CCOCC4)cc3)c2n1` : what was it?
Result: inactive

Q: Assay outcome for `Cc1ccc(-c2c(C(=O)CCl)n(CCCO)c3ncnc(N)c23)cc1` : what was it?
Result: inactive

Q: Assay outcome for `COc1ccc(C[C@@H](NS(=O)(=O)c2ccc(C(=O)O)cc2)C(=O)O)cc1` : what was it?
Result: inactive

More entries:
Q: Assay outcome for `CCCCCCN(CCCCCC)C(=O)Cc1c(-c2ccc(F)cc2)[nH]c2ccccc12` : what was it?
Result: inactive

Q: Assay outcome for `Cc1ccc2nc(-c3ccccn3)c(Nc3ccccc3C)n2c1` : what was it?
Result: inactive

Q: Assay outcome for `C/C(=N\N=C(N)N)c1cc(NC(=O)CCCCCCCCC(=O)Nc2cc(/C(C)=N/N=C(N)N)cc(/C(C)=N/N=C(N)N)c2)cc(/C(C)=N/N=C(N)N)c1` : what was it?
Result: inactive
